I'd be grateful if you could share measured Shift (IC50 ratio without/with peptidomimetic), RLA for these entries.
Biological target: T1, full-length human muscarinic 1 receptor with a FLAG tag at the N-terminus (human, UniProt P11229 1-460)
T1 sequence: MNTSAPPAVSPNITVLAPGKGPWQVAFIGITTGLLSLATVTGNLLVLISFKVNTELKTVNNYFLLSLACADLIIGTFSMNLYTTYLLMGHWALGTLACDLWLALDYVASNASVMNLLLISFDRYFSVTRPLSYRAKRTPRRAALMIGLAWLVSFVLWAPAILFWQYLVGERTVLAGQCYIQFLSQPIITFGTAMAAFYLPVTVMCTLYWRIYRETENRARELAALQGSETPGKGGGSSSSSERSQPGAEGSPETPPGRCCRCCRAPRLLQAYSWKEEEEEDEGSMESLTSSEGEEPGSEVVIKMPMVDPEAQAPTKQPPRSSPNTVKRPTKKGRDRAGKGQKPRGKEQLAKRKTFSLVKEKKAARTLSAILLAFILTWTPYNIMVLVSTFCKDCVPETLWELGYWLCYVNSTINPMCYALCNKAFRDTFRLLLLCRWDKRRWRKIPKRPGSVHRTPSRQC
Test: cell-based or functional assay
Positions of bridges follow the written chain, without caps; N, C: chain ends. Non-standard residues stand in square brackets, D forms with d. Lys(N3) = [N-]=[N+]=NCCCC[C@H](N)C(=O)O; Cha = N[C@@H](CC1CCCCC1)C(=O)O; Pra = C#CC[C@H](N)C(=O)O
Write the number on its own, no unit after it.

Query :: Quote Shift (IC50 ratio without/with peptidomimetic), RLA reported for Ac-KKKFNDCKDIILQMNLREYNLV-OH [SBL-GQ-08] please.
Result :: 2

Query :: Quote Shift (IC50 ratio without/with peptidomimetic), RLA reported for Ac-KKKFA[Pra]VKD[Lys(N3)]ILQLNLKEYN[Cha]V-OH (triazole 6-10) [SBL-GQ-06] please.
Result :: 8

Query :: Quote Shift (IC50 ratio without/with peptidomimetic), RLA reported for Ac-KKKFN[Pra]CKD[Lys(N3)]ILQMNLREYN[Cha]V-OH (triazole 6-10) [SBL-GQ-12] please.
Result :: 34
